# TEST_DESCRIPTION: In vivo pharmacokinetic study of GK-667 in rabbits, noncompartmental analysis
# Set-up: species or system rabbit
# TEST_PARAMETERS: male, New Zealand White, rabbit, plasma, iv; rabbits n = 6, GK-667 5 mg/kg i.v., NCA; read-out: λz (converted)
MEASURE_NAME: k el (s⁻¹)

>>> recorded_value("C[C@H]([C@H](C)N(CC(N)=O)CC(=O)O)N(CC(N)=O)CC(=O)O [ICRF-193met]")
0.000144

---

# TEST_DESCRIPTION: In vivo pharmacokinetic study of GK-667 in rabbits, noncompartmental analysis
# Parameters: species or system rabbit
# TEST_PARAMETERS: male, New Zealand White, rabbit, plasma, iv; rabbits n = 6, GK-667 5 mg/kg i.v., NCA
MEASURE_NAME: AUC (µM·h)

>>> recorded_value("C[C@H]([C@H](C)N(CC(N)=O)CC(=O)O)N(CC(N)=O)CC(=O)O [ICRF-193met]")
2.7
